B1: TPR 5TU (parent)
chain: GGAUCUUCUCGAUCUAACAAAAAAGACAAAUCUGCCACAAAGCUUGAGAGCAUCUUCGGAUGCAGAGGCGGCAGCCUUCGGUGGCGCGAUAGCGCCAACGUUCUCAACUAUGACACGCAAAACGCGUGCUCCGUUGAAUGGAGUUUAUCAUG

Variants of: B1
Experiment: polymerase ribozyme fitness, log enrichment relative to wild type (log ratio); higher = more active; in vitro selection for triplet polymerase activity
Variants at the floor of the assay were thinned out.
Could you please report measured polymerase ribozyme fitness (log ratio) for the items listed next?
Reply briefly: the number, and no unit.

# query: polymerase ribozyme fitness (log ratio) of entry A20G C85U G94U C95G C125U
-3.59

# query: polymerase ribozyme fitness (log ratio) of entry G58A U146G
0.231

# query: polymerase ribozyme fitness (log ratio) of entry A16U G83C C99A
-3.97

# query: polymerase ribozyme fitness (log ratio) of entry A49G G94A U127C
-3.23

# query: polymerase ribozyme fitness (log ratio) of entry U13C A16U
-0.079

# query: polymerase ribozyme fitness (log ratio) of entry A12U A19G U82C G83A A119U
-4.07

# query: polymerase ribozyme fitness (log ratio) of entry G58A C85G C118A G126C
-3.62
